Every entry's value here was drawn from patent US10392383B2.

Test system: IL-6 (THP-1 cells)
Test: IL-6 inhibition in LPS-stimulated THP-1 monocytes (HTRF)
Format: cell-based
Details: Homo sapiens, 500 ng/mL LPS, IL-6 HTRF, Table 6
pEC50: recorded values
Would you please state pEC50, meaning minus log10 of the concentration in mol/L, as a bare number?

[
  {
    "chemical string": "Oc1cncc(-c2ccc3[nH]nc(-c4nc5c(-c6cccnc6)cccc5[nH]4)c3n2)c1",
    "pEC50": 6.63
  },
  {
    "chemical string": "Fc1ccc(-c2cccc3[nH]c(-c4n[nH]c5ccc(-c6cncc(CN7CCCC7)c6)nc45)nc23)cc1",
    "pEC50": 6.41
  },
  {
    "chemical string": "Cc1ccc(-c2cccc3[nH]c(-c4n[nH]c5ccc(-c6cncc(N)c6)nc45)nc23)s1",
    "pEC50": 7.19
  }
]

Respond only with pEC50 recorded for "Cc1ncc(-c2ccc3[nH]nc(-c4nc5c(-c6cccc(F)c6)cccc5[nH]4)c3n2)n1C"
6.10

Respond only with pEC50 recorded for "O=C(CC1CCNCC1)Nc1cncc(-c2ccc3[nH]nc(-c4nc5c(-c6ccccn6)cccc5[nH]4)c3n2)c1"
6.03

Respond only with pEC50 recorded for "CN1CCN(c2cccc3[nH]c(-c4n[nH]c5ccc(-c6cncc(OCc7ccccc7)c6)nc45)nc23)CC1"
5.48

Respond only with pEC50 recorded for "CN(C)CCNc1cc(F)cc(-c2cccc3[nH]c(-c4n[nH]c5ccc(-c6ccccn6)nc45)nc23)c1"
5.06

Respond only with pEC50 recorded for "Cn1cc(-c2ccc3[nH]nc(-c4nc5c(-c6ccc(F)cc6)cccc5[nH]4)c3n2)c(CO)n1"
5.01
